# PROCEDURE DETAILS: physchem
# TEST CONTEXT: 20% aqueous DMF
# Description: pKa value determined spectrophotometrically in 20% aqueous DMF
Below: a set of entries, each annotated with reported pKa.
Give only the figure.

Solved cases (3 shown):
COc1cc(NS(C)(=O)=O)ccc1Nc1c2ccc(C)cc2nc2c(C(N)=O)cccc12    4.71
CNC(=O)c1cccc2c(Nc3ccc(NS(C)(=O)=O)cc3OC)c3ccc(OC)cc3nc12    4.82
COc1cc(NS(C)(=O)=O)ccc1Nc1c2ccccc2nc2cc(N)ccc12    9.5

Item `COc1cc(NS(C)(=O)=O)ccc1Nc1c2ccc(Cl)cc2nc2c(C(N)=O)cccc12` has what recorded pKa?
5.68

Subsequent entry: `COc1cc(NS(C)(=O)=O)ccc1Nc1c2ccc(C)cc2nc2c(C(=O)NCC(N)=O)cccc12`
4.53

Can you check `COc1cc(NS(C)(=O)=O)ccc1Nc1c2ccc([N+](=O)[O-])cc2nc2c(C(N)=O)cccc12` next?
4.71

Input `CNC(=O)c1cccc2c(Nc3ccc(NS(C)(=O)=O)cc3OC)c3ccc(C)cc3nc12`
4.71

Would you kindly repeat that for `CNC(=O)c1cccc2c(Nc3ccc(NS(C)(=O)=O)cc3OC)c3ccc([N+](=O)[O-])cc3nc12` ?
4.71

Please answer likewise for `CNC(=O)c1cccc2c(Nc3ccc(NS(C)(=O)=O)cc3OC)c3ccc(Cl)cc3nc12`
5.68

Next record, please: `COc1cc(NS(C)(=O)=O)ccc1Nc1c2ccccc2nc2cc([N+](=O)[O-])ccc12`
5.52

Lookup `COc1cc(NS(C)(=O)=O)ccc1Nc1c2ccc(Cl)cc2nc2c(C(=O)NCC(N)=O)cccc12`
5.5

----------
# Tested on: Nucleic Acid
PROPERTY MEASURED: Log K

Study these solved cases before continuing.
COc1cc(NS(C)(=O)=O)ccc1Nc1c2ccc(Cl)cc2nc2c(C(=O)NCC(N)=O)cccc12    6.83
CNC(=O)c1cccc2c(Nc3ccc(NS(C)(=O)=O)cc3OC)c3ccccc3nc12    6.18

Below: the item to evaluate.
What measured Log K goes with `COc1cc(NS(C)(=O)=O)ccc1Nc1c2ccccc2nc2cc(N)ccc12` ?
6.13

----------
# Test system: Nucleic Acid
Quick rule: Log K of at least 6 means True, below that means False.

CNC(=O)c1cccc2c(Nc3ccc(NS(C)(=O)=O)cc3OC)c3ccc(C)cc3nc12    True
CNC(=O)c1cccc2c(Nc3ccc(NS(C)(=O)=O)cc3OC)c3ccc([N+](=O)[O-])cc3nc12    False

Exam item: decide whether the reported Log K for `COc1cc(NS(C)(=O)=O)ccc1Nc1c2ccccc2nc2cc(Br)ccc12` is at least 6.
True

// query: `COc1cc(NS(C)(=O)=O)ccc1Nc1c2ccccc2nc2c(C(=O)NCC(N)=O)cccc12`
False

Subsequent entry: `COc1cc(NS(C)(=O)=O)ccc1Nc1c2ccccc2nc2cc(I)ccc12`
True

Consider next the compound `COc1cc(NS(C)(=O)=O)ccc1Nc1c2ccc(Cl)cc2nc2c(C(N)=O)cccc12` in the same way.
True

Param item: `CNC(=O)c1cccc2c(Nc3ccc(NS(C)(=O)=O)cc3OC)c3ccccc3nc12`
False

Subsequent entry: `CNC(=O)c1cccc2c(Nc3ccc(NS(C)(=O)=O)cc3OC)c3ccc(OC)cc3nc12`
True

Moving on to the next compound: `COc1cc(NS(C)(=O)=O)ccc1Nc1c2ccc(C)cc2nc2c(C(N)=O)cccc12`
True

Item: `COc1cc(NS(C)(=O)=O)ccc1Nc1c2ccccc2nc2cc(N)ccc12`
True

----------
# Tested on: Nucleic Acid
# if value of Log K reaches 6, tag True; if it stays below, tag False

CNC(=O)c1cccc2c(Nc3ccc(NS(C)(=O)=O)cc3OC)c3ccc([N+](=O)[O-])cc3nc12    True
COc1cc(NS(C)(=O)=O)ccc1Nc1c2ccccc2nc2ccccc12    False
CNC(=O)c1cccc2c(Nc3ccc(NS(C)(=O)=O)cc3OC)c3ccc(Cl)cc3nc12    True
COc1cc(NS(C)(=O)=O)ccc1Nc1c2ccc([N+](=O)[O-])cc2nc2c(C(N)=O)cccc12    True

State whether the measured Log K reaches 6, counting equality as reaching it, for `COc1cc(NS(C)(=O)=O)ccc1Nc1c2ccccc2nc2c(C(=O)NCC(N)=O)cccc12`
True

----------
Parameter 'readout' = Log K; parameter 'system' = Nucleic Acid.
Hey, just send me the number, nothing else.

Example entries begin here.
COc1cc(NS(C)(=O)=O)ccc1Nc1c2ccccc2nc2c(C(N)=O)cccc12    6.13
CNC(=O)c1cccc2c(Nc3ccc(NS(C)(=O)=O)cc3OC)c3ccc(C)cc3nc12    6.68
COc1cc(NS(C)(=O)=O)ccc1Nc1c2ccccc2nc2cc([N+](=O)[O-])ccc12    6.13
COc1cc(NS(C)(=O)=O)ccc1Nc1c2ccccc2nc2cc(I)ccc12    6.2
CNC(=O)c1cccc2c(Nc3ccc(NS(C)(=O)=O)cc3OC)c3ccc(OC)cc3nc12    6.82
COc1cc(NS(C)(=O)=O)ccc1Nc1c2ccc(Cl)cc2nc2c(C(N)=O)cccc12    6.58
COc1cc(NS(C)(=O)=O)ccc1Nc1c2ccc(C)cc2nc2c(C(N)=O)cccc12    6.3
COc1cc(NS(C)(=O)=O)ccc1Nc1c2ccc(C)cc2nc2c(C(=O)NCC(N)=O)cccc12    6.69

Next up:
// Log K lookup, key: `CNC(=O)c1cccc2c(Nc3ccc(NS(C)(=O)=O)cc3OC)c3ccc(N)cc3nc12`
6.82

----------
# Tested on: Nucleic Acid
Could you please mark True for values of Log K below 6 and False for values at or above it?

COc1cc(NS(C)(=O)=O)ccc1Nc1c2ccccc2nc2cc([N+](=O)[O-])ccc12    True
COc1cc(NS(C)(=O)=O)ccc1Nc1c2ccccc2nc2c(C(N)=O)cccc12    True
COc1cc(NS(C)(=O)=O)ccc1Nc1c2ccccc2nc2ccccc12    True
CNC(=O)c1cccc2c(Nc3ccc(NS(C)(=O)=O)cc3OC)c3ccc(Cl)cc3nc12    False

Let's switch to this compound now.
Does `CNC(=O)c1cccc2c(Nc3ccc(NS(C)(=O)=O)cc3OC)c3ccc(N)cc3nc12` have Log K strictly under 6?
False

----------
The reader will find Log K measurements below, all made with Nucleic Acid.
Provide a numeric answer; units are not to be included.

Recorded results for 3 molecules are shown here.
COc1cc(NS(C)(=O)=O)ccc1Nc1c2ccccc2nc2cc(C)ccc12    6.08
COc1ccc2c(Nc3ccc(NS(C)(=O)=O)cc3OC)c3ccccc3nc2c1    5.97
COc1cc(NS(C)(=O)=O)ccc1Nc1c2ccccc2nc2cc(Br)ccc12    6.12

# query: Log K of entry `COc1cc(NS(C)(=O)=O)ccc1Nc1c2ccccc2nc2cc(Cl)ccc12`
5.98

----------
# Tested on: Nucleic Acid
PROPERTY MEASURED: Log K
Respond with the number and no other words.

COc1cc(NS(C)(=O)=O)ccc1Nc1c2ccc([N+](=O)[O-])cc2nc2c(C(N)=O)cccc12    5.96
COc1cc(NS(C)(=O)=O)ccc1Nc1c2ccc(Cl)cc2nc2c(C(=O)NCC(N)=O)cccc12    6.06
COc1cc(NS(C)(=O)=O)ccc1Nc1c2ccccc2nc2cc(C)ccc12    5.95
COc1cc(NS(C)(=O)=O)ccc1Nc1c2ccccc2nc2cc(Cl)ccc12    6.06
COc1ccc2c(Nc3ccc(NS(C)(=O)=O)cc3OC)c3ccccc3nc2c1    5.83

Attention now shifts to the item below.
Could you share which Log K value was measured for `COc1cc(NS(C)(=O)=O)ccc1Nc1c2ccc(C)cc2nc2c(C(=O)NCC(N)=O)cccc12` ?
6
